# Test system: PPARg:RXRa IVT, anti-PPARg (NR concentration 270 nM, RXRa partner concentration 90 nM)
# test_name: PBM binding z-score (relative to random genomic background probes); higher = stronger binding; sequences stand for … in GC…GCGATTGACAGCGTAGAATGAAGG
Could you please report measured PBM binding z-score for the items listed next?
Please respond with just the number, no unit label.

Recorded PBM binding z-score of CCTAGCAGGCCAGTGTCACTCAAGCATTTCGCTT , please.
0.117

Check AGTCAAAGTTCCGGACGAGGTAACGTAAAGCACG too.
0.284

Now give it for TCTGCTAGGTCAACGGTGGTCAGCTAATCTGCTA too.
4.36

And TCTCGTTGGTCAAAGGTCACACACTCGAAATGCG ?
5.29

Lookup AGAGTGAGGTTAAGATCAGGGAAACAGAATACAT
1.39

// query: CCTACTGGTCCAAAGGTCATTGATTCCAATGCTC
4.41

// repeat for TCTATTAGTTAAAGGGCAACCGACGAGTCCGTTT and report
0.552

Try ATCGAAAGGTCGACGAGGTGAGTATTCACCGTTT next.
2.07

Next up: CCTACTGTGCCAAGGTCATTGATCAGTCAAAGCA
3.07

Note, next up: CCTAGCAGGCCAGGGTCACTCTAGCATTTCGCTT
0.7

Proceed to ACTACTAGTTGACTTAGGGCAACCGATACGACGC
0.47

Also need CTCGAAAGGTCGGTCGAGGTGAGTATACGGATAA , thanks.
1.21

Follow-up entry: CAAACTAGGTCTAAGGTCAAAGTCGAGCCAACCA
5.92

ACTATTAGTTGAGACTAGGGCAACCGATAGGTTG ?
2.46

Then what about the sequence CGTCAAAGTTCAAGGTATCGTAACAGAAAGCAGC ?
1.35

How about this sequence: CTCGAAAGGTCGGTTGAGGTTAGTATACGGATAA
0.923

Repeat for the following sequence: CCGACTGGGGTAAGGTTACCATAACGCACAGCCA
2.26

Also, TCTCCGAGGACACGAAGGTCAGAGCTTTCCAGAG please.
1.32

Thanks! And TCTTGTGGATCAAAGGTTAAGAAAGCCGAAGCCT ?
3.48

Check ATCGAAAAGTCGAGGTGAGTATAGAGAAAGGGAA too.
0.704

Okay, and ATATGTAGGTTAAGGGGCATTCAGGTTGGTTCGC ?
7.11

Similarly, TAATATAGGTAATACAGGTGAAAGTCGGCATCTA ?
5.56

Same again, this time with TCATATAGGTAAAAAGGTGAAAGTCCGTAAGTTA
4

Then what about the sequence TCTTGTGGATCAATAGAGGTTAAGAAAGTGCGCT ?
0.901

// query: ATCGAAAGGTCGAGGTGAGTAGAGAGAAAGGGAA
2.34

And for ACTCGGAGAACAAAGGTCAGAGCTACGCCAGTGA ?
2.78

Then ACAGACAGGTGAGTGAAGGTAACTCCGCTGGACG ?
0.681

Continue with GCGACTGGGGTAAAGCAGGTTACCATAAGGTTGG
2.74

How about this sequence: ACAGACAGGAGAGTGAAGGTAACTCAGCTGGACG
0.0769

What about GCTGCTAGGTCAACTGCTGGTCAGCTAAAGCTCG ?
4.38

Similarly, CCTGCTGGGCCAAGGTCATTGATCAGTCAAAGCA ?
1.18

Same read-out for GATACAGGGTCAAGGCCAGATTACGCGTATTGAT ?
4.03

Thanks! And CCTACTGGGCCATCAGGTCATTGAAATCAACGTT ?
4.91

Same for CCTTACGGGCCACTCCAGGTTATAGCATCGGAGT
0.46

Next up: CCTACTGGGCCACGAAACGTCATTGATTCAGTGA
4.94

Entry to check: CGTAAAAGTTCAACTAAGGTAACGTAAAGCACGC
1.6

Follow-up item: CGTCCAATGTCAAGGTCAGTGAAAGAGACTCGAA
1.27

Same read-out for CCTAGTTGGTCAAAGTCACACACGCTATAGGTAC ?
1.52

Also check ACTAGTTGGTCAGCTGAGGTCAGACACAATTCGG
1.86

One more sequence: AATAGTTGGTCAGCTGAGGTCACACACAATTCGG
2.86

Okay, and TCTTGTAGAGCAACAGGAGGTTAAGAAAGATCGA ?
1.27

Now consider TCCAGTTGGTCAAAGGTCACACACTCGAAATGCG and answer again.
6.12

Please give the result for GGAACGAGGGCAAAGTTGATAACATCTGTCGACG too.
4.15

Next up: ATCTCTAGGTAAAGATAGATCAGTGAATGCAAAT
1.61

---

# Test system: PPARg:RXRa 30nM:10nM, anti-RXR (NR concentration 30 nM, RXRa partner concentration 10 nM)
# test_name: PBM binding z-score (relative to random genomic background probes); higher = stronger binding; sequences stand for … in GC…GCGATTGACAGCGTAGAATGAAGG
What PBM binding z-score was measured for each of the following?
No unit in the answer, only the number.

Short answer please: PBM binding z-score, PPARg:RXRa 30nM:10nM, anti-RXR (NR concentration 30 nM, RXRa partner concentration 10 nM), entry AGAACGAGGGCAATGAGTTGATAGGACGGGTGGC
0.137

How about TCTTGTAGATCAACAGGAGGTTAAGAACGATCGA ?
2.75

Next sequence up: CGTCCTAGGTCATAGGAGGTCAGTGAAGACAGAT
1.4

Param item: CAAACTAGGTAAAGAGGTCAAAGTCCGCTTCCCG
5.17

Would you kindly repeat that for TAGCCTAGGTCATTGGGCCAATATAGTACGCATC ?
1.53

Another: TAGCCTAGGTCATGCGGGCCAGTCTAGTGTCGGC
-0.051

// next record AGAACGAGGGCAATGAGTTGACAGCACGGGTGGC
0.0302

Entry CGTCCAAGGTCAAAGTCAGTGAAAGAGACTCGAA please
1.82

Then this sequence: GCAGAGAGGTGAAACGCAGGTAACTCAGGGTGGC
-0.323

Repeat for the following sequence: ACAACGAGGGCACGCTGAGTTGATAGCAGAGTAG
0.248

Please do the same for CATACAGGGTCAGCAAGGCCAGAGTAGGGACGGC as well.
0.536

Would you mind doing GCTAGCAGGCCATTTGGTTCACTCAATGACGGGC as well?
-0.633

---

# System: RXRa homodimer (NR concentration 180 nM)
# test_name: PBM binding z-score (relative to random genomic background probes); higher = stronger binding; sequences stand for … in GC…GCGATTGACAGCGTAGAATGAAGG
Rule: PBM binding z-score under 3 gives Not met, otherwise Met.

hey, is PBM binding z-score for this one >= 3? GCTGCTAGGTCAGGTTGGTCAGCTGACGGGTACG
Not met

Follow-up item: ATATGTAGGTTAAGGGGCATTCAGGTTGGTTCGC
Not met

Param item: CCTTACGTGTCAAGGTTATAGCACGGGTGGTACG
Not met

Next sequence: CGAACTAGGTCCTCCAGGACAGTGAATACATTGA
Not met

Lookup ATCTCTAGGTAAGACTCGGTTCAGTGAAGAACGC
Not met

Check CAGCCTAGGTCTGGGCCAGTATAGGAGGAACGTT too.
Not met

Ok, now ATCTGTAGGTAACCAAGTTCAGTGAATGCCGAAC
Not met

Please answer likewise for ATCGATAGGTCGAAGGTGAGTATACCCACCCGAA
Not met

Please give the result for CAGCCTAGGTCAGGGCGAGTATAGGAGGAACGTT too.
Not met

Record: CGAACTAGGTCAGAACAAGACAGTGAAGGATGAT
Not met

Now the sequence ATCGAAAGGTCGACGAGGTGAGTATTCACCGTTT
Met

Next: TAGCCTAGGTCATGCGCCAGTATACCACGCGAAC
Met

What do we get for GCGACTGGGGCATCAGCAGGTTAACATAACTTAA ?
Not met

Request: CAAACTAGGTCAAAGGTCTAAGTCGAGCCAACCA
Met

What about GGAACGAGGGCATTCGAGTTGATGGCATGGCGAT ?
Not met

What do we get for CGTCAAAGTTCAAGGTAACGTAACAGAAAGCAGC ?
Met

And TCATATAAGTAAACAGGTGAAAGTCCGTAAGTTA ?
Not met

Now consider CCTAGTTGGTCATGAGGTCACACACCGGATATGA .
Met

Entry to check: TTACCAAGGTGGAGGTCGTTGATCCCTCTGTAGA
Not met

Please do the same for CTCGAAAGGTCGGTTGAGGTAAGTATACGGATAA as well.
Not met

Try the sequence ACTATTAGTTGATACGAGGGCAACCGATAGGTTG
Not met

Next up: ACTAGCAGGCCAAGTTTGGGTCACTGAAACAAAG
Not met

And then CGTCCCAGGTCAATGCTAGGTCAGTGAAAGCATT , what is it?
Met

Follow-up item: TAGCCTAGGTCAGATCGGGCCCGTATACGCTATA
Not met

Then this sequence: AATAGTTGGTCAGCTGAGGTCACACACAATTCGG
Met

Next record, please: ATCTCTAGGAAAAGATAGTTCAGTGAATGCAAAT
Not met

Now the same for ATATGTAGGTTATCGGGTCATTCCGTTTGCGCAT
Met

Same read-out for CCTACTGGGCCAAAGGTCACTGATTCCAATGCTC ?
Met

// next record GCTAGTTGGTCAGTAAAAGGTCACGCACCGGTCG
Met

Repeat for the following sequence: ATCTCTAGGTAAAAAGTTCAGTGAAAGAGAGGAC
Not met

Now the same for CCTTACTGGTCAAGGTTATAGCACGGGTGGTACG
Not met

Can you handle TTACCAAGGTGGGCTGAGGTCGTTGATCCAACTC next?
Not met

Try this sequence next: GCGACTGGGGCAAAGCAAGTTACCATAAGGTTGG
Not met

Please give the result for CCTAGCAGGCCAAGCTGGGTCACTCAAGGCTTGA too.
Not met

Further, for ATCTCTAGGCAAAGTTCAGTGAAAGATCGATAGA ?
Not met

// same read-out, input: CTCGAAATGTCGGTTGAGGTGAGTATACGGATAA
Not met

Would you mind doing CCTAGTTGGTAAGGAGGTCACACACCGGATATGA as well?
Met

Also TAGCCTAGGTCATTGGGCCAGTATTGTACGCATC , if possible.
Not met

Subsequent entry: ACTAGCAGGCCAAGGGCCACTCAAGATTAGTCCG
Not met

Also GTACCAAGGTGAAGAGGTCGTTGATGAGTAGGCG ?
Not met

What about this sequence? CCTTGTTGGTCAAGGTCACACACGCTATAGGTAC
Met

Lookup CCTGCTGGGCCATTCAGAGGTCATTGATCATATG
Met

Next entry: CGAACTAGGTCATTGACAGGATAGTGAATAGTAA
Not met

Continue with CGTCCAAGGTCAGGGAGGTCAGTGAATGCCGAGT
Met

Another sequence to check: TCGAGTAGGTCAGGGGCATTCAGAATGGCGTCGA
Not met
